Assay details: protein stability index of a GFP-peptide fusion (yeast GPS) (PSI 1-4); higher = more stable; sorted into four equal gates, so the index is relative within each strain
Conditions: doa10∆
Would you please tag the item yes (1) when its protein stability index is 3 or above, and no (0) when it is below?

{"Biopolymer sequence": "LGNGVACDPSEIEPILM [RGR1]", "Discrete label": "no (0)"}
{"Biopolymer sequence": "APVETKKKRFEIKKWTA [HRT1]", "Discrete label": "yes (1)"}
{"Biopolymer sequence": "VKEIVLPLFYDLLNAAS [IRR1]", "Discrete label": "no (0)"}

Read the next record carefully.
Q: Hi team, for GLKRSQLDEFKNKYLKD [SWP82] , is the recorded protein stability index at or above 3?
A: yes (1)
